Reference for the values: patent US20210355106A1

// reported Ki for each item listed
# System name: USP7 (Homo sapiens, UniProt Q93009, C315A)
# Construct: 0.25 nM His-His-USP7 (aa208-560, |C315A|) was incubated with compound; His-His (N)
# Sequence (Q93009 208-560 C315A): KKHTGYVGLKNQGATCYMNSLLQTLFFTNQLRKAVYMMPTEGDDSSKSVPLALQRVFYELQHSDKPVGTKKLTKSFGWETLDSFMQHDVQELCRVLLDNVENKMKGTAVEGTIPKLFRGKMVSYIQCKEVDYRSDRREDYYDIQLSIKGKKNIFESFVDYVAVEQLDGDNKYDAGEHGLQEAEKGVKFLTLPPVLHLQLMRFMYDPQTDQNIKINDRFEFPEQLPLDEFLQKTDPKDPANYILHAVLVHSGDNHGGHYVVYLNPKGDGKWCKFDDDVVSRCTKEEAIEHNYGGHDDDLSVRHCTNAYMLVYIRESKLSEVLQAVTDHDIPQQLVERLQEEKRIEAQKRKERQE
# Test details: Inhibition of USP7 by Fluorescence Intensity (FLINT) readings, Ubiquitin-Rhodamine-110 substrate
# Assay type: biochemical
# Experimental conditions: 0.25 nM His-His-USP7 (aa208-560), 60 minutes at 30° C. preincubation; Ki determined from IC50 according to Cer et al.
Kindly answer with a numeric value in nM, unit omitted.

In the examples that follow, each entry is paired with its recorded Ki.
{"Molecule": "COc1ccc(C2(N3CC[C@@H](C(=O)N4CCC(O)(Cn5cnc(Oc6ccc(F)cc6)c(N)c5=O)CC4)[C@H](c4ccccc4)C3)COC2)cc1", "System name": "USP7 (Homo sapiens, UniProt Q93009, C315A)", "Ki, nM": 140}
{"Molecule": "COc1cc(Oc2ncn(CC3(O)CCN(C(=O)[C@@H]4CCN(C(=O)OC(C)(C)C)C[C@H]4c4ccccc4)CC3)c(=O)c2N)ccc1F", "System name": "USP7 (Homo sapiens, UniProt Q93009, C315A)", "Ki, nM": 115}
{"Molecule": "Nc1c(Oc2ccc(F)cc2)ncn(CC2(O)CCN(C(=O)[C@@H]3CCN(C(=O)c4ccc5nc[nH]c(=O)c5c4)C[C@H]3c3ccccc3)CC2)c1=O", "System name": "USP7 (Homo sapiens, UniProt Q93009, C315A)", "Ki, nM": 5.1}
{"Molecule": "CC(C)(C)OC(=O)N1CC[C@@H](C(=O)N2CCC(O)(Cn3cnc(Oc4ccc(Cl)c(F)c4)c(N)c3=O)CC2)[C@H](c2ccccc2)C1", "System name": "USP7 (Homo sapiens, UniProt Q93009, C315A)", "Ki, nM": 125}

Here is another molecule to look at.
query: Give the measured Ki for `COc1cc(Oc2ncn(C[C@@]3(O)CCN(C(=O)[C@@H]4CCN(Cc5cnccn5)C[C@H]4c4ccccc4)CC3(F)F)c(=O)c2N)ccc1F`
result: 36.4

###

# System name: USP7 (Homo sapiens, UniProt Q93009, C315A)
# Construct: 0.25 nM His-His-USP7 (aa208-560, |C315A|) was incubated with compound; His-His (N)
# Test details: Inhibition of USP7 by Fluorescence Intensity (FLINT) readings, Ubiquitin-Rhodamine-110 substrate
# Type: biochemical
# Experimental conditions: 0.25 nM His-His-USP7 (aa208-560), 60 minutes at 30° C. preincubation; Ki determined from IC50 according to Cer et al.
Reported metric: Ki (nM)
Kindly answer with a numeric value in nM, unit omitted.

In the examples that follow, each entry is paired with its recorded Ki.
{"Smiles str": "Nc1c(Oc2ccc(F)cc2)ncn(CC2(O)CCN(C(=O)[C@@H]3CCN(C(=O)c4cncc(F)c4)C[C@H]3c3ccccc3)CC2)c1=O", "Ki / nM": 3.7}
{"Smiles str": "Nc1c(Oc2ccc(F)cc2)ncn(CC2(O)CCN(C(=O)[C@@H]3CCN(C(=O)c4cncc(Cl)c4)C[C@H]3c3ccccc3)CC2)c1=O", "Ki / nM": 1.52}
{"Smiles str": "CCOc1cccc(C(=O)N2CC[C@@H](C(=O)N3CCC(O)(Cn4cnc(Oc5ccc(F)cc5)c(N)c4=O)CC3)[C@H](c3ccccc3)C2)c1", "Ki / nM": 15}
{"Smiles str": "Nc1c(Oc2ccc(Cl)c(F)c2)ncn(CC2(O)CCN(C(=O)[C@@H]3CCNC[C@H]3c3ccccc3)CC2)c1=O", "Ki / nM": 232}
{"Smiles str": "Cn1c(C(=O)N2CC[C@@H](C(=O)N3CCC(O)(Cn4cnc(Oc5ccc(F)cc5)c(N)c4=O)CC3)[C@H](c3ccccc3)C2)ccc1-c1ccccc1", "Ki / nM": 14}
{"Smiles str": "Nc1c(Oc2ccc(F)cc2)ncn(CC2(O)CCN(C(=O)[C@@H]3CCN(C4(c5cccc(Cl)c5)COC4)C[C@H]3c3ccccc3)CC2)c1=O", "Ki / nM": 42.8}

query: Give the measured Ki for `Nc1c(Oc2ccc(F)cc2)ncn(CC2(O)CCN(C(=O)[C@@H]3CCN(C(=O)NCc4ccccc4)C[C@H]3c3ccccc3)CC2)c1=O`
result: 121

query: Give the measured Ki for `Nc1c(Oc2ccc(F)cc2)ncn(CC2(O)CCN(C(=O)[C@@H]3CCN(C(=O)c4cc(F)cc(F)c4)C[C@H]3c3ccccc3)CC2)c1=O`
result: 2.87

query: Give the measured Ki for `Nc1c(Oc2ccc(F)cc2)ncn(CC2(O)CCN(C(=O)[C@@H]3CCN(Cc4cnc(Br)s4)C[C@H]3c3ccccc3)CC2)c1=O`
result: 7.89

query: Give the measured Ki for `COc1cc(Oc2ncn(C[C@@]3(O)CCN(C(=O)[C@@H]4CCN(Cc5ccnc(C)n5)C[C@H]4c4ccccc4)CC3(F)F)c(=O)c2N)ccc1Cl`
result: 40.4

query: Give the measured Ki for `Cc1nc(Br)sc1C(=O)N1CC[C@@H](C(=O)N2CCC(O)(Cn3cnc(Oc4ccc(F)cc4)c(N)c3=O)CC2)[C@H](c2ccccc2)C1`
result: 7.1

query: Give the measured Ki for `CC(C)(C)OC(=O)N1CC[C@@H](C(=O)N2CCC(O)(Cn3cnc(Oc4cccnc4)c(N)c3=O)CC2)[C@H](c2ccccc2)C1`
result: 226

###

# System name: USP7 (Homo sapiens, UniProt Q93009, C315A)
# Construct: 0.25 nM His-His-USP7 (aa208-560, |C315A|) was incubated with compound; His-His (N)
# Test details: Inhibition of USP7 by Fluorescence Intensity (FLINT) readings, Ubiquitin-Rhodamine-110 substrate
# Type: biochemical
# Experimental conditions: 0.25 nM His-His-USP7 (aa208-560), 60 minutes at 30° C. preincubation; Ki determined from IC50 according to Cer et al.
Reported metric: Ki
Please don't drop the unit; write it after the number.

In the examples that follow, each entry is paired with its recorded Ki.
{"Smiles str": "CC1(N2CC[C@@H](C(=O)N3CCC(O)(Cn4cnc(Oc5ccccc5)c(N)c4=O)CC3)[C@H](c3ccccc3)C2)COC1", "Ki": "0.0306 µM"}
{"Smiles str": "Cc1nc(-c2cccs2)sc1C(=O)N1CC[C@@H](C(=O)N2CCC(O)(Cn3cnc(Oc4ccc(F)cc4)c(N)c3=O)CC2)[C@H](c2ccccc2)C1", "Ki": "0.0219 µM"}

query: Give the measured Ki for `COc1cc(Oc2ncn(C[C@@]3(O)CCN(C(=O)[C@@H]4CCN(Cc5ccnc(C)n5)C[C@H]4c4ccccc4)CC3(F)F)c(=O)c2N)ccc1F`
result: 0.014 µM

###

// reported log10 of Ki for each item listed
# System name: USP7 (Homo sapiens, UniProt Q93009, C315A)
# Construct: 0.25 nM His-His-USP7 (aa208-560, |C315A|) was incubated with compound; His-His (N)
# Test details: Inhibition of USP7 by Fluorescence Intensity (FLINT) readings, Ubiquitin-Rhodamine-110 substrate
# Type: biochemical
# Experimental conditions: 0.25 nM His-His-USP7 (aa208-560), 60 minutes at 30° C. preincubation; Ki determined from IC50 according to Cer et al.
// do not treat as linear: log10 of Ki, unit nM

In the examples that follow, each entry is paired with its recorded log10 of Ki.
{"Smiles str": "Cn1c(C(=O)N2CC[C@@H](C(=O)N3CCC(O)(Cn4cnc(Oc5ccc(F)cc5)c(N)c4=O)CC3)[C@H](c3ccccc3)C2)cnc1Br", "Result value": 1.32}
{"Smiles str": "Nc1c(Oc2ccc(F)cc2)ncn(CC2(O)CCN(C(=O)[C@@H]3CCN(C(=O)Nc4nc(C(F)(F)F)cs4)C[C@H]3c3ccccc3)CC2)c1=O", "Result value": 2.27}
{"Smiles str": "Cc1ccc(-c2nc(C)c(C(=O)N3CC[C@@H](C(=O)N4CCC(O)(Cn5cnc(Oc6ccc(F)cc6)c(N)c5=O)CC4)[C@H](c4ccccc4)C3)s2)cn1", "Result value": 0.34}
{"Smiles str": "Cc1nccc(CN2CC[C@@H](C(=O)N3CCC(O)(Cn4cnc(Oc5ccc(CO)cc5)c(N)c4=O)CC3)[C@H](c3ccccc3)C2)n1", "Result value": 1.48}
{"Smiles str": "Nc1c(Oc2ccc(F)cc2)ncn(CC2(O)CCN(C(=O)[C@@H]3CCN(C(=O)NCC(F)(F)F)C[C@H]3c3ccccc3)CC2)c1=O", "Result value": 2.54}

query: Give the measured log10 of Ki for `Nc1c(Oc2ccc(F)cc2)ncn(C[C@@]2(O)CCN(C(=O)[C@@H]3CCN(Cc4ccccc4F)C[C@H]3c3ccccc3)CC2(F)F)c1=O`
result: 1.11

###

# System name: USP7 (Homo sapiens, UniProt Q93009, C315A)
# Construct: 0.25 nM His-His-USP7 (aa208-560, |C315A|) was incubated with compound; His-His (N)
# Test details: Inhibition of USP7 by Fluorescence Intensity (FLINT) readings, Ubiquitin-Rhodamine-110 substrate
# Type: biochemical
# Experimental conditions: 0.25 nM His-His-USP7 (aa208-560), 60 minutes at 30° C. preincubation; Ki determined from IC50 according to Cer et al.
Response field label: string, one of y (Ki strictly below 0.01 µM) or n.

{"Smiles str": "Cc1ccc(-c2c(Cl)sc(C(=O)N3CC[C@@H](C(=O)N4CCC(O)(Cn5cnc(Oc6ccc(F)cc6)c(N)c5=O)CC4)[C@H](c4ccccc4)C3)c2F)cn1", "Class name": "y"}
{"Smiles str": "CN1CCN(c2cccc(C(=O)N3CC[C@@H](C(=O)N4CCC(O)(Cn5cnc(Oc6ccc(F)cc6)c(N)c5=O)CC4)[C@H](c4ccccc4)C3)c2)CC1", "Class name": "n"}
{"Smiles str": "Cc1ncc(C(=O)N2CC[C@@H](C(=O)N3CCC(O)(Cn4cnc(Oc5ccc(F)cc5)c(N)c4=O)CC3)[C@H](c3ccccc3)C2)s1", "Class name": "n"}
{"Smiles str": "Nc1c(Oc2ccc(F)cc2)ncn(CC2(O)CCN(C(=O)[C@@H]3CCN(C(=O)c4cc(Cl)cc(Cl)c4)C[C@H]3c3ccccc3)CC2)c1=O", "Class name": "y"}
{"Smiles str": "COc1ccccc1C1(N2CC[C@@H](C(=O)N3CCC(O)(Cn4cnc(Oc5ccc(F)cc5)c(N)c4=O)CC3)[C@H](c3ccccc3)C2)COC1", "Class name": "n"}

query: Below 0.01 µM on Ki? Entry `Cc1nc(N2CCCC2)sc1C(=O)N1CC[C@@H](C(=O)N2CCC(O)(Cn3cnc(Oc4ccc(F)cc4)c(N)c3=O)CC2)[C@H](c2ccccc2)C1`
result: y

query: Below 0.01 µM on Ki? Entry `NCc1ccc(Oc2ncn(C[C@@]3(O)CCN(C(=O)[C@@H]4CCN(C(=O)c5cc(Cl)cc(Cl)c5)C[C@H]4c4ccccc4)CC3(F)F)c(=O)c2N)cc1`
result: y

query: Below 0.01 µM on Ki? Entry `Cc1nc(-c2ccccc2)sc1C(=O)N1CC[C@@H](C(=O)N2CCC(O)(Cn3cnc(Oc4ccc(F)cc4)c(N)c3=O)CC2)[C@H](c2ccccc2)C1`
result: y

query: Below 0.01 µM on Ki? Entry `Nc1c(Oc2ccc(F)cc2)ncn(C[C@@]2(O)CCN(C(=O)[C@@H]3CCN(Cc4ncccn4)C[C@H]3c3ccccc3)CC2(F)F)c1=O`
result: n

query: Below 0.01 µM on Ki? Entry `Nc1c(Oc2ccc(F)cc2)ncn(CC2(O)CCN(C(=O)[C@@H]3CCN(C(=O)c4cncc(Br)c4)C[C@H]3c3ccccc3)CC2)c1=O`
result: y

query: Below 0.01 µM on Ki? Entry `Cc1cncc(C(=O)N2CC[C@@H](C(=O)N3CC[C@](O)(Cn4cnc(Oc5ccc(F)cc5)c(N)c4=O)C(F)(F)C3)[C@H](c3ccccc3)C2)c1`
result: y

query: Below 0.01 µM on Ki? Entry `Cc1nc(Br)sc1C(=O)N1CC[C@@H](C(=O)N2CCC(O)(Cn3cnc(Oc4cccc(C(F)(F)F)c4)c(N)c3=O)CC2)[C@H](c2ccccc2)C1`
result: n

query: Below 0.01 µM on Ki? Entry `Cc1cnc(CN2CC[C@@H](C(=O)N3CC[C@](O)(Cn4cnc(Oc5cccc(C(F)(F)F)c5)c(N)c4=O)C(F)(F)C3)[C@H](c3ccccc3)C2)cn1`
result: n

query: Below 0.01 µM on Ki? Entry `COc1cc(Oc2ncn(C[C@@]3(O)CCN(C(=O)[C@@H]4CCN(Cc5nc(C)cc(C)n5)C[C@H]4c4ccccc4)CC3(F)F)c(=O)c2N)ccc1F`
result: n

query: Below 0.01 µM on Ki? Entry `COc1cc(Oc2ncn(C[C@@]3(O)CCN(C(=O)[C@@H]4CCN(Cc5nccnc5C)C[C@H]4c4ccccc4)CC3(F)F)c(=O)c2N)ccc1F`
result: n

query: Below 0.01 µM on Ki? Entry `Nc1c(Oc2ccc(F)cc2)ncn(CC2(O)CCN(C(=O)[C@@H]3CCN(C(=O)c4sc(Cl)c(Br)c4F)C[C@H]3c3ccccc3)CC2)c1=O`
result: n
